Exercise: for every item that follows, state its recorded binding signal.
# studyTarget: thrombin (alpha-thrombin) (Homo sapiens, UniProt P00734;P00734 P00734:315-363,P00734:364-622)
# methodNotes: filter; 10 nM thrombin
One number for each entry, in % bound.

Kindly give each listed record's binding signal.
1. TCCCGACTTCGATTACTCAGGGGTGGCTGTGGGTGGCTGAGGATCGATC (ssDNA) [AMX(395)_E4]
2. TCCCGGTAGCGATCCAGAGAGGGATGGGGTGGGTGGCTGAGGATCGATC (ssDNA) [AMX(395)_H9]
3. TCCCGAGTGTCATATCATCAGAGGTTGGAGTGGGTGGCTGAGGATCGATC (ssDNA) [AMX(395)_D5]
4. TCCCAGAGCGGAAATCCTCAGGGGTGGGGTGGGTGGCTGAGGATCGATC (ssDNA) [AMX(395)_G11]
5. TCCCGGTCGTATTAGTGTGGGTGGTGTAGGGTGGTGGCTGAGGATCGATC (ssDNA) [AMX(395)_E11]
6. TCCCATGATCGTCAGATTCAGGGATGGTGTGGGTGGCTGAGGATCGATC (ssDNA) [AMX(395)_E8]

24
9.61
13.4
21.9
33.7
21.3

Required: binding signal, one value per binder below.
1. TCCCGCAATCGGTACTCAGGAGGATGGTTGGGGTGGCTGAGGATCGATC (ssDNA) [AMX(395)_B5]
2. TCCCGGTCGAGTCCTCACGAAGGGTTGGGAGGGTGGCTGAGGATCGATC (ssDNA) [AMX(395)_E7]

17.1
9.12

Count: 4. Required value per item: binding signal.
1. TCCCATAGTATCGAGCCGATTGGATGGTCTGGGTGGCTGAGGATCGATC (ssDNA) [AMX(395)_F3]
2. TCCTATCGATACGGGGTCTTCTATTGGGTCGGGGTGGCTGAGGATCGATC (ssDNA) [AMX(395)_E2]
3. TCCCACGGTCCTCACCTAGGATGGTTAGGGTGGTGGCTGAGGATCGATC (ssDNA) [AMX(395)_G2]
4. TCCCGTAATCGAGCCTGGTATTGTTGGCCTGGGTGGCTGAGGATCGATC (ssDNA) [AMX(395)_A11]

6.29
6.51
33.1
35.8
